assayed_system: receptors (Bioprint panel)
experiment_summary: biochemical
Format: binding
condition: motilin(h) (agonist radioligand); read-out: Reference Compound IC50
readout_kind: IC50 (nM)
Respond numerically; units are nM and should not be typed.

Q: IC50 for [Nleu13]-motilin (FVPIFTYGELQRLQEKERNKGQ; Motilin norleucine at 13; UniProt P12872 26-47, looked up, variant M13L) ?
Result: 0.89

* * *

So I've got pIC50 readings for CREBBP(h) (Homo sapiens, UniProt Q92793), take a look.
The quantity pIC50 is defined as the negative base-10 logarithm of the molar concentration.

molecule	pIC50
CC(C)=CCC[C@@H]1C(O)Oc2c(C)cc(O)c3c2[C@H]1CC[C@H]3C (some centres unmarked)	5.21

Q: pIC50 for CC(C)=CCC[C@H](CO)[C@@H]1CC[C@@H](C)c2c1cc(C)c(O)c2O [Compound 1, 7,8,18-trihydroxyserrulat-14-ene] ?
Result: 5.41
